Each item that follows carries a reported growth inhibition (GI).
system: A549; test: Growth inhibition of human A549 cells after 48 hrs by cell counting analysis; assay type: functional; conditions: at 10 µM
property-label: growth inhibition (GI) (%)

[[record]]
smiles_structure = "Cc1ccc(-c2csc(NC(=O)CCN3CCN(c4ccccc4)CC3)n2)cc1"
target_under_test = "A549"
endpoint_unit = "%"
censoring_sign = "="
reported = 23.8

[[record]]
smiles_structure = "CN1CCN(CCC(=O)Nc2nc(-c3ccc(Cl)cc3)cs2)CC1"
target_under_test = "A549"
endpoint_unit = "%"
censoring_sign = "<"
reported = 10

[[record]]
smiles_structure = "Cn1cc(NC(=O)c2cc(NC(=O)CNC(=N)N)cn2C)cc1C(=O)NCCC(=N)N"
target_under_test = "A549"
endpoint_unit = "%"
censoring_sign = "="
reported = 10.3

[[record]]
smiles_structure = "Cc1ccc(-c2csc(NC(=O)CN3CCN(c4ccccc4)CC3)n2)cc1"
target_under_test = "A549"
endpoint_unit = "%"
censoring_sign = "="
reported = 31.4

[[record]]
smiles_structure = "Cc1ccc(-c2csc(NC(=O)CCCl)n2)cc1"
target_under_test = "A549"
endpoint_unit = "%"
censoring_sign = "="
reported = 77.3

[[record]]
smiles_structure = "O=C(CCN1CCN(c2ccccc2)CC1)Nc1nc(-c2ccc(Cl)cc2)cs1"
target_under_test = "A549"
endpoint_unit = "%"
censoring_sign = "="
reported = 12

[[record]]
smiles_structure = "O=C(CCCl)Nc1nc(-c2ccc(Cl)cc2)cs1"
target_under_test = "A549"
endpoint_unit = "%"
censoring_sign = "="
reported = 39.9

[[record]]
smiles_structure = "Cc1ccc(-c2csc(NC(=O)CN3CCN(C)CC3)n2)cc1"
target_under_test = "A549"
endpoint_unit = "%"
censoring_sign = "<"
reported = 10

[[record]]
smiles_structure = "O=C(CN1CCN(c2ccccc2)CC1)Nc1nc(-c2ccc(Cl)cc2)cs1"
target_under_test = "A549"
endpoint_unit = "%"
censoring_sign = "<"
reported = 10

[[record]]
smiles_structure = "CN1CCN(CCC(=O)Nc2nc(-c3ccc(Br)cc3)cs2)CC1"
target_under_test = "A549"
endpoint_unit = "%"
censoring_sign = "="
reported = 22.2

[[record]]
smiles_structure = "O=C(CN1CCN(c2ccccc2)CC1)Nc1nc(-c2ccc(Br)cc2)cs1"
target_under_test = "A549"
endpoint_unit = "%"
censoring_sign = "="
reported = 30.8


----------
tested on: BT-549; assay: Growth inhibition of human BT549 cells after 48 hrs by cell counting analysis; type: functional; settings: at 10 µM
Answer Not satisfied if growth inhibition (GI) is under 30%, and Satisfied if it is 30% or more.

[[record]]
smiles_structure = "O=C(CN1CCN(c2ccccc2)CC1)Nc1nc(-c2ccc(Cl)cc2)cs1"
assigned_category = "Not satisfied"

[[record]]
smiles_structure = "Cc1ccc(-c2csc(NC(=O)CCN3CCN(c4ccccc4)CC3)n2)cc1"
assigned_category = "Not satisfied"

[[record]]
smiles_structure = "O=C(CCCl)Nc1nc(-c2ccc(Cl)cc2)cs1"
assigned_category = "Satisfied"

[[record]]
smiles_structure = "Cc1ccc(-c2csc(NC(=O)CN3CCN(c4ccccc4)CC3)n2)cc1"
assigned_category = "Not satisfied"

[[record]]
smiles_structure = "Cc1ccc(-c2csc(NC(=O)CN3CCN(C)CC3)n2)cc1"
assigned_category = "Not satisfied"

[[record]]
smiles_structure = "Cc1ccc(-c2csc(NC(=O)CCCl)n2)cc1"
assigned_category = "Satisfied"

[[record]]
smiles_structure = "CN1CCN(CCC(=O)Nc2nc(-c3ccc(Br)cc3)cs2)CC1"
assigned_category = "Satisfied"

[[record]]
smiles_structure = "O=C(CCN1CCN(c2ccccc2)CC1)Nc1nc(-c2ccc(Cl)cc2)cs1"
assigned_category = "Not satisfied"

[[record]]
smiles_structure = "O=C(CN1CCN(c2ccccc2)CC1)Nc1nc(-c2ccc(Br)cc2)cs1"
assigned_category = "Not satisfied"

[[record]]
smiles_structure = "Cn1cc(NC(=O)c2cc(NC(=O)CNC(=N)N)cn2C)cc1C(=O)NCCC(=N)N"
assigned_category = "Not satisfied"


----------
test system: HCT-116; assay: Growth inhibition of human HCT116 cells after 48 hrs by cell counting analysis; type: functional; conditions: at 10 µM
Answer f if growth inhibition (GI) is under 30%, and t if it is 30% or more.

[[record]]
compound = "O=C(CCCl)Nc1nc(-c2ccc(Cl)cc2)cs1"
assigned_category = "t"

[[record]]
compound = "Cc1ccc(-c2csc(NC(=O)CN3CCN(C)CC3)n2)cc1"
assigned_category = "f"

[[record]]
compound = "Cc1ccc(-c2csc(NC(=O)CCCl)n2)cc1"
assigned_category = "t"

[[record]]
compound = "Cc1ccc(-c2csc(NC(=O)CCN3CCN(c4ccccc4)CC3)n2)cc1"
assigned_category = "f"

[[record]]
compound = "O=C(CN1CCN(c2ccccc2)CC1)Nc1nc(-c2ccc(Br)cc2)cs1"
assigned_category = "t"

[[record]]
compound = "CN1CCN(CCC(=O)Nc2nc(-c3ccc(Cl)cc3)cs2)CC1"
assigned_category = "f"

[[record]]
compound = "O=C(CN1CCN(c2ccccc2)CC1)Nc1nc(-c2ccc(Cl)cc2)cs1"
assigned_category = "f"

[[record]]
compound = "Cn1cc(NC(=O)c2cc(NC(=O)CNC(=N)N)cn2C)cc1C(=O)NCCC(=N)N [NETROPSIN]"
assigned_category = "f"

[[record]]
compound = "O=C(CCN1CCN(c2ccccc2)CC1)Nc1nc(-c2ccc(Cl)cc2)cs1"
assigned_category = "f"

[[record]]
compound = "CN1CCN(CCC(=O)Nc2nc(-c3ccc(Br)cc3)cs2)CC1"
assigned_category = "t"

[[record]]
compound = "Cc1ccc(-c2csc(NC(=O)CN3CCN(c4ccccc4)CC3)n2)cc1"
assigned_category = "f"


----------
test system: HL-60; assay: Growth inhibition of human HL60 cells after 48 hrs by cell counting analysis; type: functional; settings: at 10 µM
property-label: growth inhibition (GI) (%)

[[record]]
compound = "O=C(CCCl)Nc1nc(-c2ccc(Cl)cc2)cs1"
censoring_sign = "="
reported = 28.5

[[record]]
compound = "Cc1ccc(-c2csc(NC(=O)CN3CCN(C)CC3)n2)cc1"
censoring_sign = "<"
reported = 10

[[record]]
compound = "Cc1ccc(-c2csc(NC(=O)CCCl)n2)cc1"
censoring_sign = "="
reported = 41.4

[[record]]
compound = "O=C(CN1CCN(c2ccccc2)CC1)Nc1nc(-c2ccc(Br)cc2)cs1"
censoring_sign = "="
reported = 27.1

[[record]]
compound = "Cn1cc(NC(=O)c2cc(NC(=O)CNC(=N)N)cn2C)cc1C(=O)NCCC(=N)N [NETROPSIN]"
censoring_sign = "="
reported = 12.6

[[record]]
compound = "CN1CCN(CCC(=O)Nc2nc(-c3ccc(Cl)cc3)cs2)CC1"
censoring_sign = "="
reported = 20.6

[[record]]
compound = "CN1CCN(CCC(=O)Nc2nc(-c3ccc(Br)cc3)cs2)CC1"
censoring_sign = "="
reported = 37.7

[[record]]
compound = "Cc1ccc(-c2csc(NC(=O)CCN3CCN(c4ccccc4)CC3)n2)cc1"
censoring_sign = "<"
reported = 10

[[record]]
compound = "O=C(CN1CCN(c2ccccc2)CC1)Nc1nc(-c2ccc(Cl)cc2)cs1"
censoring_sign = "<"
reported = 10

[[record]]
compound = "Cc1ccc(-c2csc(NC(=O)CN3CCN(c4ccccc4)CC3)n2)cc1"
censoring_sign = "<"
reported = 10

[[record]]
compound = "O=C(CCN1CCN(c2ccccc2)CC1)Nc1nc(-c2ccc(Cl)cc2)cs1"
censoring_sign = "="
reported = 19.6


----------
system: CAKI-1; experiment: Growth inhibition of human Caki1 cells after 48 hrs by cell counting analysis; format: functional; settings: at 10 µM
property-label: growth inhibition (GI) (%)

[[record]]
smiles_structure = "O=C(CN1CCN(c2ccccc2)CC1)Nc1nc(-c2ccc(Cl)cc2)cs1"
censoring_sign = "<"
reported = 10

[[record]]
smiles_structure = "O=C(CCCl)Nc1nc(-c2ccc(Cl)cc2)cs1"
censoring_sign = "="
reported = 52.5

[[record]]
smiles_structure = "O=C(CN1CCN(c2ccccc2)CC1)Nc1nc(-c2ccc(Br)cc2)cs1"
censoring_sign = "="
reported = 33.5

[[record]]
smiles_structure = "CN1CCN(CCC(=O)Nc2nc(-c3ccc(Br)cc3)cs2)CC1"
censoring_sign = "="
reported = 30.2

[[record]]
smiles_structure = "Cc1ccc(-c2csc(NC(=O)CN3CCN(c4ccccc4)CC3)n2)cc1"
censoring_sign = "="
reported = 24.6

[[record]]
smiles_structure = "Cc1ccc(-c2csc(NC(=O)CCN3CCN(c4ccccc4)CC3)n2)cc1"
censoring_sign = "="
reported = 14.1


----------
tested on: OVCAR-3; test: Growth inhibition of human OVCAR3 cells after 48 hrs by cell counting analysis; assay type: functional; conditions: at 10 µM
property-label: growth inhibition (GI)

[[record]]
smiles_structure = "Cc1ccc(-c2csc(NC(=O)CN3CCN(c4ccccc4)CC3)n2)cc1"
reported = "<10%"

[[record]]
smiles_structure = "Cc1ccc(-c2csc(NC(=O)CCCl)n2)cc1"
reported = "45.3%"

[[record]]
smiles_structure = "O=C(CCN1CCN(c2ccccc2)CC1)Nc1nc(-c2ccc(Cl)cc2)cs1"
reported = "<10%"

[[record]]
smiles_structure = "CN1CCN(CCC(=O)Nc2nc(-c3ccc(Cl)cc3)cs2)CC1"
reported = "<10%"

[[record]]
smiles_structure = "Cc1ccc(-c2csc(NC(=O)CCN3CCN(c4ccccc4)CC3)n2)cc1"
reported = "<10%"

[[record]]
smiles_structure = "Cn1cc(NC(=O)c2cc(NC(=O)CNC(=N)N)cn2C)cc1C(=O)NCCC(=N)N"
reported = "<10%"

[[record]]
smiles_structure = "O=C(CN1CCN(c2ccccc2)CC1)Nc1nc(-c2ccc(Br)cc2)cs1"
reported = "<10%"

[[record]]
smiles_structure = "Cc1ccc(-c2csc(NC(=O)CN3CCN(C)CC3)n2)cc1"
reported = "<10%"

[[record]]
smiles_structure = "O=C(CCCl)Nc1nc(-c2ccc(Cl)cc2)cs1"
reported = "89.8%"

[[record]]
smiles_structure = "O=C(CN1CCN(c2ccccc2)CC1)Nc1nc(-c2ccc(Cl)cc2)cs1"
reported = "<10%"

[[record]]
smiles_structure = "CN1CCN(CCC(=O)Nc2nc(-c3ccc(Br)cc3)cs2)CC1"
reported = "<10%"

